In this section, each of the molecules is paired with its reported PT.
Species on record: Rattus norvegicus
assay: Open TG-GATES - Regimen: Daily Repeat
Format: toxicity, organism-based, Sprague-Dawley
Design: regimen Daily Repeat, gender Male, age 6 weeks
measurementParameters: in vivo, po, 300 mg/kg, 72 h, tissue Blood, route gavage, dose level Middle, time 3 day
Please reply with the bare figure in s and do not write the unit itself.

Sample records with PT:
| molecule | number |
| --- | --- |
| CN/C(=N/CCSCc1nc[nH]c1C)NC#N [CIMETIDINE] | 12.4 |
| COC(=O)C1=C(C)NC(C)=C(C(=O)OC)C1c1ccccc1[N+](=O)[O-] [NIFEDIPINE] | 13.8 |
| Cc1nnc2n1-c1ccc(Cl)cc1C(c1ccccc1Cl)=NC2 [TRIAZOLAM] | 12.8 |

**Q:** Provide measured PT value, entry: CNC(=C[N+](=O)[O-])NCCSCc1ccc(CN(C)C)o1 [RANITIDINE]
**A:** 12.4

====

Species on record: Rattus norvegicus
assay: Open TG-GATES - Regimen: Daily Repeat
Type: toxicity, organism-based, Sprague-Dawley
Set-up: regimen Daily Repeat, gender Male, age 6 weeks
measurementParameters: in vivo, po, 100 mg/kg, […], tissue Blood, route gavage, dose level Low, time 14 day
In this section, each of the compounds is paired with its reported APTT.
Please reply with the bare figure in s and do not write the unit itself.

| compound | unitAbbreviation | APTT |
| --- | --- | --- |
| Cc1nnc2n1-c1ccc(Cl)cc1C(c1ccccc1Cl)=NC2 [TRIAZOLAM] | s | 17.9 |
| CCOc1ccc(NC(C)=O)cc1 [PHENACETIN] | s | 17.8 |
| COC(=O)C1=C(C)NC(C)=C(C(=O)OC)C1c1ccccc1[N+](=O)[O-] [NIFEDIPINE] | s | 19 |
| O=C(OC[C@H]1O[C@@H](OC(=O)c2cc(O)c(O)c(OC(=O)c3cc(O)c(O)c(O)c3)c2)[C@H](OC(=O)c2cc(O)c(O)c(OC(=O)c3cc(O)c(O)c(O)c3)c2)[C@@H](OC(=O)c2cc(O)c(O)c(OC(=O)c3cc(O)c(O)c(O)c3)c2)[C@@H]1OC(=O)c1cc(O)c(O)c(OC(=O)c2cc(O)c(O)c(O)c2)c1)c1cc(O)c(O)c(OC(=O)c2cc(O)c(O)c(O)c2)c1 [TANNIC ACID] | s | 16.7 |

**Q:** Provide measured APTT value, entry: CN/C(=N/CCSCc1nc[nH]c1C)NC#N [CIMETIDINE]
**A:** 19.3

**Q:** Provide measured APTT value, entry: CNC(=C[N+](=O)[O-])NCCSCc1ccc(CN(C)C)o1 [RANITIDINE]
**A:** 19.6

====

Organism: Rattus norvegicus
assay: Open TG-GATES - Regimen: Single
Type: toxicity, organism-based, Sprague-Dawley
Set-up: regimen Single, gender Male, age 6 weeks
measurementParameters: in vivo, po, 100 mg/kg, 3 h, tissue Blood, route gavage, dose level Low
assayEndpoint: Hb (g/dL)
Please reply with the bare figure in g/dL and do not write the unit itself.

| compound | assayEndpoint | number |
| --- | --- | --- |
| COC(=O)C1=C(C)NC(C)=C(C(=O)OC)C1c1ccccc1[N+](=O)[O-] [NIFEDIPINE] | Hb | 12.9 |

**Q:** Provide measured Hb value, entry: Cc1nnc2n1-c1ccc(Cl)cc1C(c1ccccc1Cl)=NC2 [TRIAZOLAM]
**A:** 13.9

**Q:** Provide measured Hb value, entry: CNC(=C[N+](=O)[O-])NCCSCc1ccc(CN(C)C)o1 [RANITIDINE]
**A:** 13.7

**Q:** Provide measured Hb value, entry: CN/C(=N/CCSCc1nc[nH]c1C)NC#N [CIMETIDINE]
**A:** 13.1

**Q:** Provide measured Hb value, entry: O=C(OC[C@H]1O[C@@H](OC(=O)c2cc(O)c(O)c(OC(=O)c3cc(O)c(O)c(O)c3)c2)[C@H](OC(=O)c2cc(O)c(O)c(OC(=O)c3cc(O)c(O)c(O)c3)c2)[C@@H](OC(=O)c2cc(O)c(O)c(OC(=O)c3cc(O)c(O)c(O)c3)c2)[C@@H]1OC(=O)c1cc(O)c(O)c(OC(=O)c2cc(O)c(O)c(O)c2)c1)c1cc(O)c(O)c(OC(=O)c2cc(O)c(O)c(O)c2)c1 [TANNIC ACID]
**A:** 13

====

In this section, each of the compounds is paired with its reported Lym.
Organism: Rattus norvegicus
assay: Open TG-GATES - Regimen: Single
Format: toxicity, organism-based, Sprague-Dawley
Parameters: regimen Single, gender Male, age 6 weeks
measurementParameters: in vivo, po, 300 mg/kg, 9 h, tissue Blood, route gavage, dose level Middle
Please reply with the bare figure in % and do not write the unit itself.

| entrySmiles | assayEndpoint | number |
| --- | --- | --- |
| COC(=O)C1=C(C)NC(C)=C(C(=O)OC)C1c1ccccc1[N+](=O)[O-] | Lym | 78.2 |
| O=C(OC[C@H]1O[C@@H](OC(=O)c2cc(O)c(O)c(OC(=O)c3cc(O)c(O)c(O)c3)c2)[C@H](OC(=O)c2cc(O)c(O)c(OC(=O)c3cc(O)c(O)c(O)c3)c2)[C@@H](OC(=O)c2cc(O)c(O)c(OC(=O)c3cc(O)c(O)c(O)c3)c2)[C@@H]1OC(=O)c1cc(O)c(O)c(OC(=O)c2cc(O)c(O)c(O)c2)c1)c1cc(O)c(O)c(OC(=O)c2cc(O)c(O)c(O)c2)c1 | Lym | 74.8 |
| CNC(=C[N+](=O)[O-])NCCSCc1ccc(CN(C)C)o1 | Lym | 67.8 |
| CN/C(=N/CCSCc1nc[nH]c1C)NC#N | Lym | 80.2 |

Next compound, Lym to be filled in.
**Q:** Provide measured Lym value, entry: Cc1nnc2n1-c1ccc(Cl)cc1C(c1ccccc1Cl)=NC2
**A:** 74

====

In this section, each of the molecules is paired with its reported LIVER.
Species: Rattus norvegicus
assay: Open TG-GATES - Regimen: Daily Repeat
Type: toxicity, organism-based, Sprague-Dawley
Design: regimen Daily Repeat, gender Male, age 6 weeks
measurementParameters: in vivo, po, 100 mg/kg, […], tissue Liver, route gavage, dose level Low, time 28 day
Reply with the number and its unit after it.

Sample records with LIVER:
| entrySmiles | LIVER |
| --- | --- |
| Cc1nnc2n1-c1ccc(Cl)cc1C(c1ccccc1Cl)=NC2 | 15.5 g |
| O=C(OC[C@H]1O[C@@H](OC(=O)c2cc(O)c(O)c(OC(=O)c3cc(O)c(O)c(O)c3)c2)[C@H](OC(=O)c2cc(O)c(O)c(OC(=O)c3cc(O)c(O)c(O)c3)c2)[C@@H](OC(=O)c2cc(O)c(O)c(OC(=O)c3cc(O)c(O)c(O)c3)c2)[C@@H]1OC(=O)c1cc(O)c(O)c(OC(=O)c2cc(O)c(O)c(O)c2)c1)c1cc(O)c(O)c(OC(=O)c2cc(O)c(O)c(O)c2)c1 | 15.5 g |
| CN/C(=N/CCSCc1nc[nH]c1C)NC#N | 17.6 g |
| CCOc1ccc(NC(C)=O)cc1 | 16.4 g |
| COC(=O)C1=C(C)NC(C)=C(C(=O)OC)C1c1ccccc1[N+](=O)[O-] | 15.4 g |

**Q:** Provide measured LIVER value, entry: CNC(=C[N+](=O)[O-])NCCSCc1ccc(CN(C)C)o1
**A:** 15.5 g

====

Organism: Rattus norvegicus
assay: Open TG-GATES - Regimen: Daily Repeat
Assay type: toxicity, organism-based, Sprague-Dawley
Parameters: regimen Daily Repeat, gender Male, age 6 weeks
measurementParameters: in vivo, po, 300 mg/kg, […], tissue Plasma, route gavage, dose level Middle, time 28 day
In this section, each of the compounds is paired with its reported AST.
Please reply with the bare figure in IU/L and do not write the unit itself.

Sample records with AST:
| compound | assayEndpoint | number |
| --- | --- | --- |
| CCOc1ccc(NC(C)=O)cc1 [PHENACETIN] | AST | 63 |
| Cc1nnc2n1-c1ccc(Cl)cc1C(c1ccccc1Cl)=NC2 [TRIAZOLAM] | AST | 67.8 |
| CNC(=C[N+](=O)[O-])NCCSCc1ccc(CN(C)C)o1 [RANITIDINE] | AST | 60.2 |
| CN/C(=N/CCSCc1nc[nH]c1C)NC#N [CIMETIDINE] | AST | 67 |
| O=C(OC[C@H]1O[C@@H](OC(=O)c2cc(O)c(O)c(OC(=O)c3cc(O)c(O)c(O)c3)c2)[C@H](OC(=O)c2cc(O)c(O)c(OC(=O)c3cc(O)c(O)c(O)c3)c2)[C@@H](OC(=O)c2cc(O)c(O)c(OC(=O)c3cc(O)c(O)c(O)c3)c2)[C@@H]1OC(=O)c1cc(O)c(O)c(OC(=O)c2cc(O)c(O)c(O)c2)c1)c1cc(O)c(O)c(OC(=O)c2cc(O)c(O)c(O)c2)c1 [TANNIC ACID] | AST | 55.5 |

Next compound, AST to be filled in.
**Q:** Provide measured AST value, entry: COC(=O)C1=C(C)NC(C)=C(C(=O)OC)C1c1ccccc1[N+](=O)[O-] [NIFEDIPINE]
**A:** 73.8
